# target desc: T1, human β NGF (human, UniProt P01138 122-241, biotinylated in the TrkA inhibition ELISA (sites not given))
# T1 construct: Bought (R&D Systems 256-GF/CF); also called Human NGF; biotinylated human NGF
# T1 sequence (P01138 122-241 limits assumed): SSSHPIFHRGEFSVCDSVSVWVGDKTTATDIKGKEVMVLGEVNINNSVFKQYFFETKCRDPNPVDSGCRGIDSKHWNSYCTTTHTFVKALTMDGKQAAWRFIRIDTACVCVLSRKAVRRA
# test protocol: TrkA inhibition ELISA; biotin-hNGF bound to rat TrkA/Fc; supernatant 25-fold
quantity: absorbance at 450 nm (OD450)
Give the value, in units of OD450, as a plain number.

Sample answers from the record:
binder	numeric readout
2B12 hybridoma supernatant (antibody, mouse IgG2b, V domains shown, Tested as supernatant of the hybridoma before subcloning; mouse IgG2b kappa; also called ML129-2B12.5G9) VH: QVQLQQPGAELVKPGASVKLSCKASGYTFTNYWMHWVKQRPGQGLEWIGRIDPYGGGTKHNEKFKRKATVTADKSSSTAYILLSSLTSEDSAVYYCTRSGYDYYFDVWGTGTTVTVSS VL: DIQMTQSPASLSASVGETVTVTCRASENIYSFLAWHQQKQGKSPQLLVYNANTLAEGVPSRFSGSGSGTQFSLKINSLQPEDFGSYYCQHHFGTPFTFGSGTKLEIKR	0.095
23F1 hybridoma supernatant (antibody, mouse IgG1, V domains shown, Tested as supernatant of the hybridoma before subcloning; mouse IgG1 kappa; also called ML129-23F1.4G3) VH: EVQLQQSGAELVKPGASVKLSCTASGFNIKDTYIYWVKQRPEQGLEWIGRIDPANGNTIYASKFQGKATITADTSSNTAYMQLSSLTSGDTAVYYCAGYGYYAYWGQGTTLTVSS VL: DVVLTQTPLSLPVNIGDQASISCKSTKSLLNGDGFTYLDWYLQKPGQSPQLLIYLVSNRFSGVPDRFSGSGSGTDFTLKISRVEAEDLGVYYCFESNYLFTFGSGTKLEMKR	0.276

*Q* Item under review: 21D4 hybridoma supernatant (antibody, mouse IgG1, V domains shown, Tested as supernatant of the hybridoma before subcloning; mouse IgG1 kappa; also called ML129-21D4.4A11) VH: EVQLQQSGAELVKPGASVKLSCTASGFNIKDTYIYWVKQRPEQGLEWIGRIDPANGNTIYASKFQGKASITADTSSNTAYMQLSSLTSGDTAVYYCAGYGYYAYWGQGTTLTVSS VL: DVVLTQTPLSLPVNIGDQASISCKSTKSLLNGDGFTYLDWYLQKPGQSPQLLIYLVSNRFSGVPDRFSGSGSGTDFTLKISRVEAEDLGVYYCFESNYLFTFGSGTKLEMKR . Reported absorbance at 450 nm?
*A* 0.404

*Q* Item under review: 14A9 hybridoma supernatant (antibody, mouse IgG1, V domains shown, Tested as supernatant of the hybridoma before subcloning; mouse IgG1 kappa; also called ML130-14A9.5B12) VH: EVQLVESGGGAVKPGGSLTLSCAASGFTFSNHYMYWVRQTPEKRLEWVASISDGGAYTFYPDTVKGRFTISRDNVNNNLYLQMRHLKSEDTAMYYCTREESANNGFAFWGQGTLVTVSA VL: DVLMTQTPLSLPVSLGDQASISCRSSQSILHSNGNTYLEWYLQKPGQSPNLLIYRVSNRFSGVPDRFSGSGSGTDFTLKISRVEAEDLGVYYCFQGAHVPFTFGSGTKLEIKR . Reported absorbance at 450 nm?
*A* 0.376

*Q* Item under review: 20B10 hybridoma supernatant (antibody, mouse IgG2b, V domains shown, Tested as supernatant of the hybridoma before subcloning; mouse IgG2b kappa; also called ML129-20B10.3F4) VH: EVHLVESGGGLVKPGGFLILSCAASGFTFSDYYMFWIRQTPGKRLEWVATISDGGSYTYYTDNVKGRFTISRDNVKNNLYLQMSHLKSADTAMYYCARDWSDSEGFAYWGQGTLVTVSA VL: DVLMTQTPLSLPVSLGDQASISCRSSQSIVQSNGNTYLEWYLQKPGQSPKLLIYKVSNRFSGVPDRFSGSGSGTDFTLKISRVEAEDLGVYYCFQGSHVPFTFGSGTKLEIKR . Reported absorbance at 450 nm?
*A* 0.289

*Q* Item under review: 3F7 hybridoma supernatant (antibody, mouse IgG1, V domains shown, Tested as supernatant of the hybridoma before subcloning; mouse IgG1 kappa; also called ML130-3F7.4A8) VH: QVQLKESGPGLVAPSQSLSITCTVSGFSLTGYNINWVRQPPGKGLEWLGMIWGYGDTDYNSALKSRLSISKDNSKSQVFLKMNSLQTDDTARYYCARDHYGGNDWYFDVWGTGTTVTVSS VL: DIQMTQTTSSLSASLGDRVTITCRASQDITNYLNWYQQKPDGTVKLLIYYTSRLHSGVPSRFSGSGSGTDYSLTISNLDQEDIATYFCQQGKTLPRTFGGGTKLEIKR . Reported absorbance at 450 nm?
*A* 0.149
